All values here come from BigSolDB 2.1.

# experimental_conditions: in ethanol, 323.15 K
reported_endpoint: solubility (mole fraction)

Some molecules with known solubility (mole fraction) results, for comparison:
test_smiles	solubility (mole fraction)
O=C(/C=C/c1cn(-c2ccccc2)nc1-c1cccc([N+](=O)[O-])c1)c1nc2ccccc2[nH]1	0.000103
O=C(/C=C/c1cn(-c2ccccc2)nc1-c1ccc(Cl)cc1)c1nc2ccccc2[nH]1	0.000155
O=C(/C=C/c1cn(-c2ccccc2)nc1-c1ccccc1)c1nc2ccccc2[nH]1	0.000146
O=C(/C=C/c1cn(-c2ccccc2)nc1-c1ccccc1Cl)c1nc2ccccc2[nH]1	0.000195
COc1cccc(-c2nn(-c3ccccc3)cc2/C=C/C(=O)c2nc3ccccc3[nH]2)c1	0.000148

(1) COc1ccc(-c2nn(-c3ccccc3)cc2/C=C/C(=O)c2nc3ccccc3[nH]2)cc1OC
(2) COc1ccc(-c2nn(-c3ccccc3)cc2/C=C/C(=O)c2nc3ccccc3[nH]2)cc1
Please indicate which item has the smaller measured solubility (mole fraction): 1 versus 2 Return value: the label identifying the chosen record.
1
